# System: DU-145
# protocolNotes: MTT cell viability assay, DU-145
# Format: cell-based, human
# statedConditions: Homo sapiens, DU-145; MTT, 48 h, mean ± SD of three experiments; read-out: IC50 DU-145 (Prostate)
A collection of molecules and their measured IC50
reportedMetric: IC50 (µM)

- O=C(NC(=[Se])NC1CCCCC1)c1ccc2c(c1)OCO2 [Compound 12]: 5.22
- O=C(NC(=[Se])NC1CCCCC1)c1cccs1 [Compound 10]: 5.18
- CC(=O)Oc1ccccc1C(=O)NC(=[Se])NC(C)C [Compound 16]: 11.4
- CC(C)NC(=[Se])NC(=O)c1ccc2c(c1)OCO2 [Compound 19]: 5.13
- CC(=O)Oc1ccccc1C(=O)[Se]C(=NC(C)C)NC(C)C [Compound 4]: 5.06
- CC(C)NC(=[Se])NC(=O)c1ccccc1 [Compound 15]: 5.19
- CC(C)NC(=[Se])NC(=O)c1cccs1 [Compound 17]: 5.12
- O=C(NC(=[Se])NC1CCCCC1)c1ccccc1 [Compound 8]: 8.83
- CC(=O)Oc1ccccc1C(=O)NC(=[Se])NC1CCCCC1 [Compound 9]: 8.76
- CC(=O)Oc1ccccc1C(=O)[Se]C(=NC1CCCCC1)NC1CCCCC1 [Compound 1]: 5.17

---

# System: HCT-116
# protocolNotes: MTT cell viability assay, HCT-116
# Type: cell-based, human
# statedConditions: 10 µM, 48 h, MTT screening (Figure S1)
A collection of molecules and their measured percentage of cell growth, HCT-116
reportedMetric: percentage of cell growth, HCT-116 (%)

- CC(C)NC(=[Se])NC(=O)c1ccc2c(c1)OCO2 [Compound 19]: 97.76
- CC(=O)Oc1ccccc1C(=O)NC(=[Se])NC(C)C [Compound 16]: 86.98
- CC(C)N=C(NC(C)C)[Se]C(=O)c1cccs1 [Compound 6]: 122.83
- CC(=O)Oc1ccccc1C(=O)[Se]C(=NC(C)C)NC(C)C [Compound 4]: 36.77
- CC(C)N=C(NC(C)C)[Se]C(=O)c1ccccc1 [Compound 3]: 119.69
- CC(C)NC(=[Se])NC(=O)c1ccccc1 [Compound 15]: 123.90
- O=C(/C=C/c1cccs1)NC(=[Se])NC1CCCCC1 [Compound 13]: 145.89
- CC(C)NC(=[Se])NC(=O)/C=C/c1ccccc1 [Compound 18]: 75.78
- CC(=O)Oc1ccccc1C(=O)NC(=[Se])NC1CCCCC1 [Compound 9]: 117.25
- O=C(NC(=[Se])NC1CCCCC1)c1ccccc1 [Compound 8]: 104.00
- CC(C)NC(=[Se])NC(=O)c1ccccc1O [Compound 22]: 80.19
- CC(C)NC(=[Se])NC(=O)/C=C/c1cccs1 [Compound 20]: 109.34
- CC(C)N=C(NC(C)C)[Se]C(=O)c1ccc2c(c1)OCO2 [Compound 7]: 105.51
- O=C(/C=C/c1ccccc1)NC(=[Se])NC1CCCCC1 [Compound 11]: 103.12
- O=C(/C=C/c1ccccc1)[Se]C(=NC1CCCCC1)NC1CCCCC1 [Compound 2]: 120.40
- CC(C)NC(=[Se])NC(=O)c1cccs1 [Compound 17]: 115.35
- CC(C)NC(=[Se])NC(=O)/C=C/c1ccc2c(c1)OCO2 [Compound 21]: 89.57
- CC(=O)Oc1ccccc1C(=O)[Se]C(=NC1CCCCC1)NC1CCCCC1 [Compound 1]: 94.15
- O=C(NC(=[Se])NC1CCCCC1)c1cccs1 [Compound 10]: 122.54
- CC(C)N=C(NC(C)C)[Se]C(=O)Cc1cccs1 [Compound 5]: 139.96
- O=C(NC(=[Se])NC1CCCCC1)c1ccc2c(c1)OCO2 [Compound 12]: 76.40
- O=C(/C=C/c1ccc2c(c1)OCO2)NC(=[Se])NC1CCCCC1 [Compound 14]: 101.60
